# Test system: Plasmodium berghei
# experimentSummary: Screen against P. berghei liver stage (PbLuc), transformed with Luciferase, at 10uM
# Format: functional, HepG2
# measurementSetup: tested at 10 uM
The campaign covered roughly 69,000 compounds. About 8,600 (12%) showed an effect of 50% or more. The entries come from a sample that favours strong results as a whole.
In this section, each of the molecules is paired with its reported INHIBITION.
reportedEndpoint: INHIBITION (%)

[[record]]
molecule = "CC(C)CCn1ccc(NC(=O)N2CCCC2CN2CCOCC2)n1 (configuration not stated)"
targetdesc = "Plasmodium berghei"
readingunit = "%"
observedresult = -0.551

[[record]]
molecule = "COc1ccc(-n2nc(C3CC3)nc2CCn2cnnn2)cc1"
targetdesc = "Plasmodium berghei"
readingunit = "%"
observedresult = 52.5

[[record]]
molecule = "COc1ccccc1Oc1ncccc1CNC(=O)C1COC(=O)N1 (configuration not stated)"
targetdesc = "Plasmodium berghei"
readingunit = "%"
observedresult = 41.3

[[record]]
molecule = "Cc1occc1C(=O)N1CCc2c(CNS(C)(=O)=O)cncc2C1"
targetdesc = "Plasmodium berghei"
readingunit = "%"
observedresult = 6.55

[[record]]
molecule = "Cc1cnn(CC2CCCN2Cc2c(C)noc2C)c1 (configuration not stated)"
targetdesc = "Plasmodium berghei"
readingunit = "%"
observedresult = 5.983

[[record]]
molecule = "CCNC(=O)CCC(=O)N1CCC(Oc2cc(C)ccc2C)CC1"
targetdesc = "Plasmodium berghei"
readingunit = "%"
observedresult = 14.9

[[record]]
molecule = "Cc1ccc(CN2CCC3(CC2)NC(=O)CC3c2ccncc2)cc1C (configuration not stated)"
targetdesc = "Plasmodium berghei"
readingunit = "%"
observedresult = 16.6

[[record]]
molecule = "CS(=O)(=O)Nc1cccc(C(=O)Nc2ccc3c(c2)C(=O)NC3)c1"
targetdesc = "Plasmodium berghei"
readingunit = "%"
observedresult = -13.2

[[record]]
molecule = "Cc1ccc(CN2CC[C@@H]3[C@@H]2CCN3C(=O)Cc2cccs2)o1"
targetdesc = "Plasmodium berghei"
readingunit = "%"
observedresult = 93.7

[[record]]
molecule = "Cc1ccc(NC2CCN(C(=O)CCc3ccsc3)CC2)nn1"
targetdesc = "Plasmodium berghei"
readingunit = "%"
observedresult = -59.4

[[record]]
molecule = "Cc1ccc(N2CCCN(C(=O)CCc3ccsc3)CC2)nn1"
targetdesc = "Plasmodium berghei"
readingunit = "%"
observedresult = 1.04

[[record]]
molecule = "CCn1cnnc1C1CCN(C(=O)c2cnc(C)s2)CC1"
targetdesc = "Plasmodium berghei"
readingunit = "%"
observedresult = 27.6

